- Test system: sensitized rats (passive cutaneous anaphylaxis)
- procedureText: passive cutaneous anaphylaxis (PCA) in sensitized rats
- Type: in vivo
- details: po; rat p.o.
Where a name gives a salt, the structure may show the parent alone.

# compound, unitsOfMeasure, ED50
rows = [
    ("Cl.NC1=NCC2c3ccccc3Cc3cc(Cl)ccc3N12 (stereo not drawn) [Example 1(a)]", "mg/kg", 0.96),
    ("NC1=NCC2c3ccccc3Cc3ccccc3N12 (stereo not drawn) [Example 1, hydrobromide]", "mg/kg", 6),
    ("Br.NC1=NCC2c3cc(Cl)ccc3Sc3ccccc3N12 (stereo not drawn) [Example 1(l)]", "mg/kg", 5.4),
    ("Br.NC1=NCC2c3ccccc3Oc3ccccc3N12 (stereo not drawn) [Example 1(c)]", "mg/kg", 1.1),
    ("Br.NC1=NCC2c3ccccc3Sc3ccccc3N12 (stereo not drawn) [Example 1(i)]", "mg/kg", 3.8),
    ("NC1=NCC2c3cc(Cl)ccc3Oc3ccccc3N12 (stereo not drawn) [Example 1(d), hydrobromide]", "mg/kg", 2.5),
]
